Reported inhibition at 0.05 µM is given for each of the following compounds.
# tgt: TYK2 (Mus musculus (Mouse), UniProt Q9R117)
# Sequence (Q9R117 whole entry): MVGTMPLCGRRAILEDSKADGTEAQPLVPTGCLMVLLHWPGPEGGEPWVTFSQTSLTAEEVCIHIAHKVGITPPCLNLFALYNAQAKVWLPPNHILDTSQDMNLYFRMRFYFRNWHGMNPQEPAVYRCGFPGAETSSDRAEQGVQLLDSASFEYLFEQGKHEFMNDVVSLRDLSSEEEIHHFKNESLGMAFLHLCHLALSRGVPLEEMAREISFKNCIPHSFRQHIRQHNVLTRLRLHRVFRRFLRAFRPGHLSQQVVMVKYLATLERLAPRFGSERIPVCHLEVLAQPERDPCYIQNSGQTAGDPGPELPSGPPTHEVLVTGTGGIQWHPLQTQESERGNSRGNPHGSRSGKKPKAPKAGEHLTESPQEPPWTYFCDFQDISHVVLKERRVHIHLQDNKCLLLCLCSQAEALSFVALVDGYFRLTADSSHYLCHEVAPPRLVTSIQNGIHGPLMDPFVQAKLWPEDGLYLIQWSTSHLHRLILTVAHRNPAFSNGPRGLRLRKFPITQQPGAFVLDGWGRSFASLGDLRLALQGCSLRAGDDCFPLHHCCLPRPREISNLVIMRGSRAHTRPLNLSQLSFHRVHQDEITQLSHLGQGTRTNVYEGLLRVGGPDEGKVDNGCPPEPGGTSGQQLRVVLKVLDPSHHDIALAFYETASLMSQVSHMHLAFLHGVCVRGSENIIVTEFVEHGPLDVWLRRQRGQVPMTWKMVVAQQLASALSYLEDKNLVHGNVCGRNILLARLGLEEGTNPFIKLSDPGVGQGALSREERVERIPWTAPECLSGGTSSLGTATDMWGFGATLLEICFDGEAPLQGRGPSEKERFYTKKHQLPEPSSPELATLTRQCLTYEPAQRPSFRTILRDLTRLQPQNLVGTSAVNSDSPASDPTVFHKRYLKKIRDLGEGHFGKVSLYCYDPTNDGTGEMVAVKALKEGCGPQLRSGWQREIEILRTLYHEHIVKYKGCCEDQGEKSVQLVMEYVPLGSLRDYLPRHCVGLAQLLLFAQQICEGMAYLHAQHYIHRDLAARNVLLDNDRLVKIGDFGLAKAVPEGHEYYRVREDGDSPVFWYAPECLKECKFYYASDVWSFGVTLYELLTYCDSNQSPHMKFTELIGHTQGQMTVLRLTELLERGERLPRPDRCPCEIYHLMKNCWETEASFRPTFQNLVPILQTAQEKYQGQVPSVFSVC
# test_protocol: Luciferase assay in L929 ISRE cells stimulated with IFN-α
# Format: cell-based
# test_context: 50 nM, IFN-α 100 ng/mL, read-out: Inhibitory activity % (50 nM)

{"structure_notation": "[2H]C([2H])([2H])NC(=O)c1nnc(NC(=O)C2CC2)cc1Nc1cccc(-c2cc(P(=O)(C3CC3)C3CC3)n(C)n2)c1OC", "inhibition at 0.05 µM (%)": 86}
{"structure_notation": "[2H]C([2H])([2H])NC(=O)c1nnc(NC(=O)C2CC2)cc1Nc1cccc(-c2cc(P(=O)(CC)CC)n(C)n2)c1OC", "inhibition at 0.05 µM (%)": 44}
{"structure_notation": "CCC(=O)c1cnc(NC(=O)C2CC2)cc1Nc1cccc(-c2cc(P(=O)(C3CC3)C3CC3)n(C)n2)c1OC", "inhibition at 0.05 µM (%)": 89}
{"structure_notation": "CCC(=O)c1cnc(NC(=O)C2CC2)cc1Nc1ncnc(-c2cc(P(=O)(C3CC3)C3CC3)n(C)n2)c1OC", "inhibition at 0.05 µM (%)": 70}

---

# test_protocol: Pharmacokinetic evaluation in mice
# Assay type: in vivo
# test_context: male, mouse, plasma, iv; mice, i.v. 2 mg/kg

{"structure_notation": "[2H]C([2H])([2H])n1nc(-c2cccc(Nc3cc(NC(=O)C4CC4)ncc3C(=O)CC)c2OC)cc1P(C)(C)=O", "unit_spec": "ng·h/mL", "AUC": 1350}
{"structure_notation": "CCC(=O)c1cnc(NC(=O)C2CC2)cc1Nc1cccc(-c2cc(P(C)(C)=O)n(C)n2)c1OC", "unit_spec": "ng·h/mL", "AUC": 1940}
{"structure_notation": "[2H]C([2H])([2H])NC(=O)c1nnc(NC(=O)C2CC2)cc1Nc1cccc(-c2cc(P(=O)(C3CC3)C3CC3)n(C)n2)c1OC", "unit_spec": "ng·h/mL", "AUC": 2670}
{"structure_notation": "CCC(=O)c1cnc(NC(=O)C2CC2)cc1Nc1cccc(-c2cc(P(=O)(C3CC3)C3CC3)n(C)n2)c1OC", "unit_spec": "ng·h/mL", "AUC": 2160}

---

Reported clearance is given for each of the following compounds.
# test_protocol: Pharmacokinetic evaluation in rats
# Type: in vivo, rat
# test_context: male, plasma, iv; rat, i.v. 2 mg/kg

{"structure_notation": "CCC(=O)c1cnc(NC(=O)C2CC2)cc1Nc1cccc(-c2cc(P(C)(C)=O)n(C)n2)c1OC", "unit_spec": "mL/min/kg", "clearance": 13.8}
{"structure_notation": "[2H]C([2H])([2H])NC(=O)c1nnc(NC(=O)C2CC2)cc1Nc1cccc(-c2cc(P(=O)(C3CC3)C3CC3)n(C)n2)c1OC", "unit_spec": "mL/min/kg", "clearance": 11.6}
{"structure_notation": "[2H]C([2H])([2H])n1nc(-c2cccc(Nc3cc(NC(=O)C4CC4)ncc3C(=O)CC)c2OC)cc1P(C)(C)=O", "unit_spec": "mL/min/kg", "clearance": 12.7}
{"structure_notation": "CCC(=O)c1cnc(NC(=O)C2CC2)cc1Nc1cccc(-c2cc(P(=O)(C3CC3)C3CC3)n(C)n2)c1OC", "unit_spec": "mL/min/kg", "clearance": 10.9}

---

# test_protocol: Metabolic stability test, rat liver microsomes
# Format: in vitro ADME
# test_context: pH 7.4; rat liver microsomes; read-out: T1/2 RLM

{"compound": "CCC(=O)c1cnc(NC(=O)C2CC2)cc1Nc1cccc(-c2cc(P(C)(C)=O)n(C)n2)c1OC [Compound B2]", "half-life at 1 μM, h": 1.68}

---

# test_protocol: Pharmacokinetic evaluation in beagle dog
# Assay type: in vivo
# test_context: plasma, po; beagle dog, p.o. 15 mg/kg
Reported Cmax is given for each of the following compounds.

{"structure_notation": "CCC(=O)c1cnc(NC(=O)C2CC2)cc1Nc1cccc(-c2cc(P(=O)(C3CC3)C3CC3)n(C)n2)c1OC", "Cmax": "4870 ng/mL"}
{"structure_notation": "[2H]C([2H])([2H])NC(=O)c1nnc(NC(=O)C2CC2)cc1Nc1cccc(-c2cc(P(=O)(C3CC3)C3CC3)n(C)n2)c1OC", "Cmax": "9870 ng/mL"}

---

Reported Cmax is given for each of the following compounds.
# test_protocol: Pharmacokinetic evaluation in beagle dog
# Format: in vivo
# test_context: plasma, po; beagle dog, p.o. 5 mg/kg

{"structure_notation": "CCC(=O)c1cnc(NC(=O)C2CC2)cc1Nc1cccc(-c2cc(P(=O)(C3CC3)C3CC3)n(C)n2)c1OC", "Cmax": "3980 ng/mL"}
{"structure_notation": "[2H]C([2H])([2H])NC(=O)c1nnc(NC(=O)C2CC2)cc1Nc1cccc(-c2cc(P(=O)(C3CC3)C3CC3)n(C)n2)c1OC", "Cmax": "3100 ng/mL"}

---

# test_protocol: Pharmacokinetic evaluation in beagle dog
# Type: in vivo
# test_context: plasma, iv; beagle dog, i.v. 1 mg/kg

{"compound": "CCC(=O)c1cnc(NC(=O)C2CC2)cc1Nc1cccc(-c2cc(P(=O)(C3CC3)C3CC3)n(C)n2)c1OC [Compound B37]", "Vd": "0.33 L/kg"}
{"compound": "[2H]C([2H])([2H])NC(=O)c1nnc(NC(=O)C2CC2)cc1Nc1cccc(-c2cc(P(=O)(C3CC3)C3CC3)n(C)n2)c1OC [Compound B41]", "Vd": "0.56 L/kg"}

---

# test_protocol: Pharmacokinetic evaluation in rats
# Assay type: in vivo, rat
# test_context: male, plasma, iv; rat, i.v. 2 mg/kg
Reported Vd is given for each of the following compounds.
property_label: Vd (L/kg)

{"compound": "[2H]C([2H])([2H])n1nc(-c2cccc(Nc3cc(NC(=O)C4CC4)ncc3C(=O)CC)c2OC)cc1P(C)(C)=O [Compound B22]", "property_label": "Vd", "experimental_value": 1.4}
{"compound": "[2H]C([2H])([2H])NC(=O)c1nnc(NC(=O)C2CC2)cc1Nc1cccc(-c2cc(P(=O)(C3CC3)C3CC3)n(C)n2)c1OC [Compound B41]", "property_label": "Vd", "experimental_value": 1}
{"compound": "CCC(=O)c1cnc(NC(=O)C2CC2)cc1Nc1cccc(-c2cc(P(=O)(C3CC3)C3CC3)n(C)n2)c1OC [Compound B37]", "property_label": "Vd", "experimental_value": 0.9}
{"compound": "CCC(=O)c1cnc(NC(=O)C2CC2)cc1Nc1cccc(-c2cc(P(C)(C)=O)n(C)n2)c1OC [Compound B2]", "property_label": "Vd", "experimental_value": 1.5}

---

Reported Cmax is given for each of the following molecules.
# test_protocol: Pharmacokinetic evaluation in rats
# Type: in vivo, rat
# test_context: male, plasma, po; rat, p.o. 10 mg/kg
property_label: Cmax (ng/mL)

{"molecule": "CCC(=O)c1cnc(NC(=O)C2CC2)cc1Nc1cccc(-c2cc(P(C)(C)=O)n(C)n2)c1OC [Compound B2]", "property_label": "Cmax", "unit_spec": "ng/mL", "experimental_value": 2020}
{"molecule": "[2H]C([2H])([2H])n1nc(-c2cccc(Nc3cc(NC(=O)C4CC4)ncc3C(=O)CC)c2OC)cc1P(C)(C)=O [Compound B22]", "property_label": "Cmax", "unit_spec": "ng/mL", "experimental_value": 694}
{"molecule": "[2H]C([2H])([2H])NC(=O)c1nnc(NC(=O)C2CC2)cc1Nc1cccc(-c2cc(P(=O)(C3CC3)C3CC3)n(C)n2)c1OC [Compound B41]", "property_label": "Cmax", "unit_spec": "ng/mL", "experimental_value": 1800}
{"molecule": "CCC(=O)c1cnc(NC(=O)C2CC2)cc1Nc1cccc(-c2cc(P(=O)(C3CC3)C3CC3)n(C)n2)c1OC [Compound B37]", "property_label": "Cmax", "unit_spec": "ng/mL", "experimental_value": 1890}

---

Reported solubility kinetic at 2 h is given for each of the following compounds.
# test_protocol: Kinetic solubility test
# Format: physicochemical
# test_context: phosphate buffer, aqueous buffer, kinetic from dmso stock; 50 mM PB pH 7.4
property_label: solubility kinetic at 2 h (µM)

{"structure_notation": "[2H]C([2H])([2H])NC(=O)c1nnc(NC(=O)C2CC2)cc1Nc1cccc(-c2cc(P(=O)(C3CC3)C3CC3)n(C)n2)c1OC", "experimental_value": 11.3}
{"structure_notation": "[2H]C([2H])([2H])n1nc(-c2cccc(Nc3cc(NC(=O)C4CC4)ncc3C(=O)CC)c2OC)cc1P(C)(C)=O", "experimental_value": 91.9}
{"structure_notation": "CCC(=O)c1cnc(NC(=O)C2CC2)cc1Nc1cccc(-c2cc(P(C)(C)=O)n(C)n2)c1OC", "experimental_value": 52.4}

The measurements presented in this section are drawn from patent US20240343747A1.
